Attribution: ChEMBL document CHEMBL1151524

# test-target: GTPase HRas (Homo sapiens, UniProt P01112)
# Sequence (P01112 whole entry, looked up): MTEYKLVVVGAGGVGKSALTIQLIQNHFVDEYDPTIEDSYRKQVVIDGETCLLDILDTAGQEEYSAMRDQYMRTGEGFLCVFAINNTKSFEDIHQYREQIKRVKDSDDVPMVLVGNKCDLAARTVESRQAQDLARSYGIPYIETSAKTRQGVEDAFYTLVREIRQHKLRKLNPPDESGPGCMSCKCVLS
# measurement-notes: Inhibition of nucleotide exchange process of oncogenic Ras in vitro
In this section we review reported IC50 values for a set of molecules.
measured-endpoint: IC50 (µM)

INSERT INTO results (molecule, result_number) VALUES
  ('COc1ccc2nc3c(c(C)nn3[C@H]3C=C[C@@H](COC(=O)c4ccccc4)O3)c(Cl)c2c1', 80),
  ('COc1ccc2nc3c(c(C)nn3[C@@H]3O[C@H](OC(O)CC(=O)c4ccccc4)[C@H]4OC(=S)O[C@H]43)c(Cl)c2c1 (stereo partly drawn)', 1.5),
  ('COc1ccc2nc3c(c(C)nn3[C@H]3CN(Sc4ccc([N+](=O)[O-])cc4)C[C@@H](C/C=C/C(=O)c4ccccc4)O3)c(Cl)c2c1', 7.4),
  ('COc1ccc2nc3c(c(C)nn3[C@@H]3O[C@H](O/C=C/C(=O)c4ccccc4)[C@@H](O)[C@H]3O)c(Cl)c2c1', 10),
  ('COc1ccc2nc3c(c(C)nn3[C@H]3CN(S(=O)(=O)c4ccc([N+](=O)[O-])cc4)C[C@@H](CO)O3)c(Cl)c2c1', 8),
  ('COc1ccc2nc3c(c(C)nn3[C@H]3CN(Sc4ccccc4[N+](=O)[O-])C[C@@H](C/C=C/C(=O)c4ccccc4)O3)c(Cl)c2c1', 4.7),
  ('COc1ccc2nc3c(c(C)nn3[C@H]3CN(S(=O)(=O)c4ccc([N+](=O)[O-])cc4)C[C@@H](CO[Si](C)(C)C(C)(C)C)O3)c(Cl)c2c1', 5),
  ('COc1ccc2nc3c(c(C)nn3[C@@H]3O[C@H](COC(=O)c4ccco4)[C@@H](OC(=O)c4ccco4)[C@H]3OC(=O)c3ccco3)c(Cl)c2c1', 10.5),
  ('COc1ccc2nc3c(c(C)nn3[C@H]3CN(S(=O)(=O)c4ccc(NC(C)=O)cc4)C[C@@H](CO[Si](C)(C)C(C)(C)C)O3)c(Cl)c2c1', 27),
  ('COc1ccc2nc3c(c(C)nn3[C@H]3CN(S(=O)(=O)c4ccccc4)C[C@@H](CO)O3)c(Cl)c2c1', 12),
  ('COc1ccc2nc3c(c(C)nn3[C@H]3CN(Sc4ccc([N+](=O)[O-])cc4)C[C@@H](CO[Si](C)(C)C(C)(C)C)O3)c(Cl)c2c1', 50),
  ('COc1ccc2nc3c(c(C)nn3[C@@H]3O[C@H](COC(=O)c4ccccc4)[C@H]4OC(=S)O[C@H]43)c(Cl)c2c1', 15),
  ('COc1ccc2nc3c(c(C)nn3[C@H]3CN(Sc4ccccc4[N+](=O)[O-])C[C@@H](CO)O3)c(Cl)c2c1', 14);

---

# test-target: GTPase HRas (Homo sapiens, UniProt P01112)
# measurement-notes: Inhibition of nucleotide exchange process of oncogenic Ras at concentration 50 uM
In this section we review reported inhibition values for a set of compounds.
measured-endpoint: inhibition (%)

INSERT INTO assay_data (smiles_representation, unit_abbreviation, result_number) VALUES
  ('COc1ccc(C(=O)OC[C@H]2O[C@@H](n3nc(C)c4c(Cl)c5cc(OC)ccc5nc43)[C@H](OC(=O)c3ccc(OC)cc3)[C@@H]2OC(=O)c2ccc(OC)cc2)cc1', '%', 44),
  ('COc1ccc2nc3c(c(C)nn3[C@H]3CNC[C@@H](CO)O3)c(Cl)c2c1', '%', 0),
  ('COc1ccc2nc3c(c(C)nn3[C@@H]3O[C@H](O/C=C/C(=O)c4ccccc4)[C@H]4OC(C)(C)O[C@H]43)c(Cl)c2c1', '%', 53),
  ('COc1ccc2nc3c(c(C)nn3[C@@H]3O[C@H](COC(=O)c4ccccc4)[C@@H](OC(C)=O)[C@H]3OC(C)=O)c(Cl)c2c1', '%', 44);
